compounds and their reported IC50
- subject_of_test: Replicase polyprotein 1ab (Severe acute respiratory syndrome coronavirus 2)
Give the value, in units of µM, as a plain number.

INSERT INTO assay_data (compound_structure, subject_of_test, value_type, unit_of_measurement, value_observed) VALUES
  ('CC(C)C[C@@H]1NC(=O)[C@H](Cc2ccccc2)NC(=O)[C@@H]2CCCN2C(=O)[C@H]([C@@H](C)O)NC(=O)[C@H]([C@@H](C)O)NC(=O)[C@H]([C@@H](C)O)NC(=O)[C@H](Cc2c[nH]cn2)NC(=O)[C@H](Cc2cccc(F)c2)NC(=O)[C@H]([C@@H](C)O)NC(=O)[C@H](C(C)C)NC(=O)[C@@H](Cc2ccc(O)cc2)NC(=O)CSC[C@@H](C(=O)NCC(N)=O)NC(=O)[C@@H]2CCCN2C(=O)[C@@H]2CCCN2C1=O', 'Replicase polyprotein 1ab (Severe acute respiratory syndrome coronavirus 2)', 'IC50', 'µM', 0.25);

Please look at the following compound next.
Task item: // map CC(C)[C@@H]1NC(=O)[C@@H](Cc2ccc(O)cc2)NC(=O)CC[C@@H](C(N)=O)NC(=O)[C@@H]2CCCN2C(=O)[C@@H]2CCCN2C(=O)[C@@H]2CSc3c(F)c(F)c(c(F)c3F)SC[C@H](NC1=O)C(=O)N[C@@H](Cc1ccccc1)C(=O)N[C@@H](Cc1c[nH]cn1)C(=O)N[C@@H]([C@@H](C)O)C(=O)N[C@@H]([C@@H](C)O)C(=O)N[C@@H]([C@@H](C)O)C(=O)N1CCC[C@H]1C(=O)N[C@@H](Cc1ccccc1)C(=O)N2 to recorded IC50 (system: Replicase polyprotein 1ab (Severe acute respiratory syndrome coronavirus 2))
Reply: 16.6

* * *

- subject_of_test: Replicase polyprotein 1ab (Severe acute respiratory syndrome coronavirus 2, UniProt P0DTD1)
Positions of bridges follow the written chain, without caps; N, C: chain ends. Residues, ends and D or L forms follow the SMILES beside them.
value_type: pIC50
The scale used: pIC50 is minus the common logarithm of the concentration in molar units.

Task item: Can you look up the measured pIC50 of CC(C)C[C@@H]1NC(=O)[C@H](CC(N)=O)NC(=O)[C@H](Cc2ccc(O)cc2)NC(=O)CSC[C@@H](C(=O)NCC(N)=O)NC(=O)[C@H](Cc2ccccc2)NC(=O)[C@H](CCCNC(=N)N)NC(=O)[C@H](CCC(N)=O)NC(=O)[C@H](CC(N)=O)NC(=O)[C@H](Cc2c[nH]c3ccccc23)NC(=O)[C@H](CC(=O)O)NC(=O)[C@H]([C@@H](C)O)NC(=O)[C@H](CCCNC(=N)N)NC(=O)[C@H](CCC(N)=O)NC(=O)[C@H](Cc2ccccc2)NC1=O ({CH2CO}-YNLFQRTDWNQRFCG-NH2; thioether N-14) for me?
Reply: 6.60

* * *

- test_name: Volume of distribution at steady state in male CD-1 mouse at 4 mg/kg, iv by LC-MS/MS analysis
- Assay type: ADME, organism-based
- run_parameters: in vivo, read-out: Vdss
value_type: Vd (L/kg)
Numeric answer only, unit L/kg assumed.

Task item: Please look up its Vd: CC(C)[C@@H]1NC(=O)[C@@H](Cc2ccc(O)cc2)NC(=O)CC[C@@H](C(N)=O)NC(=O)[C@@H]2CCCN2C(=O)[C@@H]2CCCN2C(=O)C2CSc3c(F)c(F)c(c(F)c3F)-c3c(F)c(F)c(c(F)c3F)SC[C@H](NC1=O)C(=O)N[C@@H](Cc1ccccc1)C(=O)N[C@@H](Cc1c[nH]cn1)C(=O)N[C@@H]([C@@H](C)O)C(=O)N[C@@H]([C@@H](C)O)C(=O)N[C@@H]([C@@H](C)O)C(=O)N1CCC[C@H]1C(=O)N[C@@H](Cc1ccccc1)C(=O)N2
Reply: 0.511

* * *

- subject_of_test: Replicase polyprotein 1ab (Severe acute respiratory syndrome coronavirus 2)
value_type: IC50 (µM)
Output spec: scalar in µM, unitless text.

INSERT INTO results (compound_structure, unit_of_measurement, value_observed) VALUES
  ('CC(C)C[C@@H]1NC(=O)[C@H](Cc2ccccc2)NC(=O)[C@@H]2CCCN2C(=O)[C@H]([C@@H](C)O)NC(=O)[C@H]([C@@H](C)O)NC(=O)[C@H]([C@@H](C)O)NC(=O)[C@H](Cc2c[nH]cn2)NC(=O)[C@H](Cc2ccccc2)NC(=O)[C@H]([C@@H](C)O)NC(=O)[C@H](C(C)C)NC(=O)[C@@H](Cc2ccc(O)cc2)NC(=O)CSC[C@@H](C(=O)NCC(N)=O)NC(=O)[C@@H]2CCCN2C(=O)[C@H](C)NC1=O', 'µM', 0.61),
  ('CC(C)[C@@H]1NC(=O)[C@@H](Cc2ccc(O)cc2)NC(=O)CSC[C@@H](C(=O)NCC(N)=O)NC(=O)[C@@H]2CCCN2C(=O)[C@@H]2CCCN2C(=O)[C@H](C)NC(=O)[C@H](Cc2ccccc2)NC(=O)[C@@H]2CCCN2C(=O)[C@H]([C@@H](C)O)NC(=O)[C@H]([C@@H](C)O)NC(=O)[C@H]([C@@H](C)O)NC(=O)[C@H](Cc2c[nH]cn2)NC(=O)[C@H](Cc2ccccc2)NC(=O)[C@H]([C@@H](C)O)NC1=O', 'µM', 0.37);

Attention now turns to another entry.
Task item: Would you kindly share the measured IC50 for CC(C)C[C@@H]1NC(=O)[C@H](Cc2ccccc2)NC(=O)[C@@H]2CCCN2C(=O)[C@H](C)NC(=O)[C@H]([C@@H](C)O)NC(=O)[C@H]([C@@H](C)O)NC(=O)[C@H](Cc2c[nH]cn2)NC(=O)[C@H](Cc2ccccc2)NC(=O)[C@H]([C@@H](C)O)NC(=O)[C@H](C(C)C)NC(=O)[C@@H](Cc2ccc(O)cc2)NC(=O)CSC[C@@H](C(=O)NCC(N)=O)NC(=O)[C@@H]2CCCN2C(=O)[C@@H]2CCCN2C1=O ?
Reply: 0.22

* * *

- subject_of_test: Replicase polyprotein 1ab (Severe acute respiratory syndrome coronavirus 2, UniProt P0DTD1)
Positions of bridges follow the written chain, without caps; N, C: chain ends. Residues, ends and D or L forms follow the SMILES beside them.
Item-by-item account of pKd
// pKd is dimensionless: -log10 of concentration (M)

Solved cases (2 shown):
INSERT INTO assay_data (compound, value_type, value_observed) VALUES
  ('CC(C)C[C@@H]1NC(=O)[C@H](Cc2ccccc2)NC(=O)[C@@H]2CCCN2C(=O)[C@H]([C@@H](C)O)NC(=O)[C@H]([C@@H](C)O)NC(=O)[C@H]([C@@H](C)O)NC(=O)[C@H](Cc2c[nH]cn2)NC(=O)[C@H](Cc2ccccc2)NC(=O)[C@H]([C@@H](C)O)NC(=O)[C@H](C(C)C)NC(=O)[C@@H](Cc2ccc(O)cc2)NC(=O)CSC[C@@H](C(=O)NCC(N)=O)NC(=O)[C@@H]2CCCN2C(=O)[C@@H]2CCCN2C1=O', 'pKd', 5.56),
  ('CC(C)C[C@@H]1NC(=O)[C@H](Cc2ccccc2)NC(=O)[C@@H](Cc2ccc(O)cc2)NC(=O)CSC[C@@H](C(=O)NCC(N)=O)NC(=O)CNC(=O)[C@H](Cc2ccccc2)NC(=O)[C@H]([C@@H](C)O)NC(=O)[C@H](Cc2ccc(O)cc2)NC(=O)[C@H](CCCNC(=N)N)NC(=O)[C@H](Cc2ccc(O)cc2)NC(=O)[C@@H]2CCCN2C(=O)[C@@H]2CCCN2C1=O', 'pKd', 5.40);

Next:
Task item: # query: pKd of entry CC(C)C[C@@H]1NC(=O)[C@H](CC(N)=O)NC(=O)[C@H](Cc2ccc(O)cc2)NC(=O)CSC[C@@H](C(=O)NCC(N)=O)NC(=O)[C@H](Cc2ccc(O)cc2)NC(=O)[C@H](CCC(N)=O)NC(=O)[C@H]([C@@H](C)O)NC(=O)[C@H]([C@@H](C)O)NC(=O)[C@H](Cc2c[nH]c3ccccc23)NC(=O)[C@H](CC(=O)O)NC(=O)[C@H]([C@@H](C)O)NC(=O)[C@H](CCCNC(=N)N)NC(=O)[C@H](CCC(N)=O)NC(=O)[C@H](Cc2ccccc2)NC1=O ({CH2CO}-YNLFQRTDWTTQYCG-NH2; thioether N-14)
Reply: 5.95

* * *

- subject_of_test: Replicase polyprotein 1ab (Severe acute respiratory syndrome coronavirus 2, UniProt P0DTD1)
Positions of bridges follow the written chain, without caps; N, C: chain ends. Residues, ends and D or L forms follow the SMILES beside them.
value_type: pKd
pKd is defined as minus the log10 of a concentration measured in mol/L.

INSERT INTO assay_data (compound, value_observed) VALUES
  ('CC(C)C[C@@H]1NC(=O)[C@H](CC(N)=O)NC(=O)[C@H](Cc2ccc(O)cc2)NC(=O)CSC[C@@H](C(=O)NCC(N)=O)NC(=O)[C@H](Cc2ccccc2)NC(=O)[C@H](CCCNC(=N)N)NC(=O)[C@H](CCC(N)=O)NC(=O)[C@H](CC(N)=O)NC(=O)[C@H](Cc2c[nH]c3ccccc23)NC(=O)[C@H](CC(=O)O)NC(=O)[C@H]([C@@H](C)O)NC(=O)[C@H](CCCNC(=N)N)NC(=O)[C@H](CCC(N)=O)NC(=O)[C@H](Cc2ccccc2)NC1=O ({CH2CO}-YNLFQRTDWNQRFCG-NH2; thioether N-14)', 5.60),
  ('CC(C)C[C@@H]1NC(=O)[C@H](CC(N)=O)NC(=O)[C@H](Cc2ccc(O)cc2)NC(=O)CSC[C@@H](C(=O)NCC(N)=O)NC(=O)[C@H](Cc2ccccc2)NC(=O)[C@H](CO)NC(=O)[C@H](CO)NC(=O)[C@H](CO)NC(=O)[C@H](Cc2c[nH]c3ccccc23)NC(=O)[C@H](CC(=O)O)NC(=O)[C@H](C)NC(=O)[C@H](CCCNC(=N)N)NC(=O)[C@H](CCC(N)=O)NC(=O)[C@H](Cc2ccccc2)NC1=O ({CH2CO}-YNLFQRADWSSSFCG-NH2; thioether N-14)', 5.17),
  ('CC[C@H](C)[C@@H]1NC(=O)[C@@H](Cc2ccc(O)cc2)NC(=O)CSC[C@@H](C(=O)NCC(N)=O)NC(=O)[C@@H]2CCCN2C(=O)[C@H](CC(C)C)NC(=O)[C@H](CC(C)C)NC(=O)[C@H]([C@@H](C)O)NC(=O)[C@H](CC(N)=O)NC(=O)CNC(=O)[C@H](CO)NC(=O)[C@H](C)NC(=O)[C@H](Cc2ccccc2)NC(=O)[C@H](CCCNC(=N)N)NC1=O', 5.32);

Consider now this further compound.
Task item: I would be grateful if you could share the reported pKd for CC[C@H](C)[C@@H]1NC(=O)[C@H](Cc2ccc(O)cc2)NC(=O)[C@H](CO)NC(=O)[C@H](CC(C)C)NC(=O)CNC(=O)[C@H](Cc2ccc(O)cc2)NC(=O)[C@H](CO)NC(=O)[C@H](CCC(N)=O)NC(=O)[C@H](Cc2ccccc2)NC(=O)[C@@H](Cc2ccc(O)cc2)NC(=O)CSC[C@@H](C(=O)NCC(N)=O)NC(=O)CNC(=O)[C@@H]2CCCN2C1=O .
Reply: 5.56
